# Tested on: Human immunodeficiency virus type 1 reverse transcriptase (Human immunodeficiency virus 1), Q72547 [Y181C]
# PROTOCOL: Percent inhibitory activity against Y181C HIV type I reverse transcriptase at a concentration of 1 uM
// values below are reported inhibition
Answer with a number only, understood to be in %.

Some compounds with known inhibition results, for comparison:
CCN1c2ncccc2C(=O)Nc2c(COCc3ccccc3)cc(O)nc21	38
O=C1Nc2c(CCc3ccccc3)ccnc2N(C2CC2)c2ncccc21	38
CCN1c2ncccc2C(=O)Nc2c(COc3ccccc3)cc(OC)nc21	17

The reported value for `COc1ccc(O)c(Cc2ccnc3c2NC(=O)c2cccnc2N3C2CC2)c1` in terms of inhibition is 47
